From: PubChem BioAssay

test.method.notes: growth inhibitors of H69AR lung tumor, primary screen, human, duplicate replicates (AID 580);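 also: 100% = mean luminescence of untreated wells and 0% = no signal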
condition.info: H69AR lung tumor cells viability, ATP luminescence, 72 h; at 10 µM; hits give low values
Form field: viability (one value per entry).
All answers are understood in %, so give the number only.

1. Cc1cc(C)n(-c2nnc(C)n2/N=C/c2ccco2)n1 ... 96.1
2. Cc1nnc2sc(-c3cccc(NC(=O)c4cccnc4)c3)nn12 ... 87.8

Consider the compound shown here: COC(=O)c1ccccc1NC(=O)C1CC(=O)N(c2ccc(F)cc2)C1 (stereo not drawn) What is its recorded viability?
96

Fill blank: measured viability of the compound CN(C)/C=C1\N=C(c2ccc3c(c2)OCO3)OC1=O is ____.
98.1

// returns reported viability for input COc1ccc(CC(=O)Nc2c3c(nn2-c2cccc(Cl)c2)CS(=O)(=O)C3)cc1
90.2

Would you kindly share the measured viability for c1ccc2c(c1)CNC1(CCCCC1)C2 ?
102

What viability value was documented for this compound, CC1(C)O[C@@H]2C[C@H]3[C@@H]4C[C@H](F)C5=CC(=O)C=C[C@]5(C)[C@@]4(F)[C@@H](O)C[C@]3(C)[C@]2(C(=O)CO)O1 ?
94.1

For the compound shown here, O=S(=O)(NC1=NCCC1)c1cccs1 , give the reported viability.
107

May I ask what viability has been recorded for O=C(CC(C(=O)N1CCc2ccccc21)n1ccnc1)NCc1cccnc1 (stereo not drawn) ?
89.1

Given the compound CCCS(=O)(=O)N1CCC(C(=O)N2CCCC2)CC1 , what is its reported viability?
95

Could you tell me which viability is on file for CCOc1cc(C(=O)NCC2CCCO2)cc(OCC)c1OCC (stereo not drawn) ?
102

# viability lookup, item O=c1c2cc(N3CCOCC3)ccc2[nH]c(=S)n1CCCN1CCCC1
100

So what does the record say about viability for COc1cccc(-c2cc(C(F)(F)F)n3ncc(C(=O)O)c3n2)c1 ?
108
